protocol: Tissue distribution of Compound A in mice with mammary C/16 adenocarcinomas (first method: liver, heart, kidney, lung, spleen, tumor)
Type: in vivo, C3H/HeN female mice
test context: mouse, heart/plasma, iv, 40 mg/kg, 0.75 h; mice with tumors; single mice; read-out: Tissue/Plasma Ratio, HEART
value kind: Kp at 0.75 h

Which Kp at 0.75 h reading was recorded for the compound CC(=O)O[C@H]1C(=O)[C@]23C[C@H]2C[C@H]2OC[C@@]2(OC(C)=O)[C@H]3[C@H](OC(=O)c2ccccc2)[C@]2(O)C[C@H](OC(=O)[C@H](O)[C@@H](NC(=O)OC(C)(C)C)c3ccccc3)C(C)=C1C2(C)C [Compound A] ?
0.87

Data origin: patent US6156789A
